The measured values listed here are drawn from patent US20240252677A1.

assay: DLS size of dendrimersomes assembled from glycerol-JDs in water at different concentrations
Assay type: physicochemical
condition-info: JD 0.1 mg·mL−1 in water
Description: Assembly of all eight glycerol-JDs was performed by injection of their ethanol solution (50 μL) into 1 mL of Milli-Q water. The size distribution and structure of resulting DSs were analyzed by DLS (FIG. 84) and cryo-TEM. […] In a certain concentration range the size of DSs increased with the concentration of JDs injected in water or buffer. […] The dimensions of the assemblies were identical when the concentrations of the JDs in water were identical. […]
measured-parameter: PDI
Please respond with just the number, no unit label.

CCCCCCCCCCCCOc1cc(OCCCCCCCCCCCC)cc(C(=O)OC[C@H](COC(=O)C(C)(COC(=O)c2cc(OCCOCCOCCOC)c(OCCOCCOCCOC)c(OCCOCCOCCOC)c2)COC(=O)c2cc(OCCOCCOCCOC)c(OCCOCCOCCOC)c(OCCOCCOCCOC)c2)OC(=O)c2cc(OCCCCCCCCCCCC)cc(OCCCCCCCCCCCC)c2)c1 [Compound 1R, (3,5)-12G1-GC-(R)-BMPA-(3,4,5)-3EO-G1]	0.197
CCCCCCCCCCCCOc1cc(OCCCCCCCCCCCC)cc(C(=O)OCC(C)(COC(=O)c2cc(OCCCCCCCCCCCC)cc(OCCCCCCCCCCCC)c2)C(=O)OC[C@@H](COC(=O)c2cc(OCCOCCOCCOC)c(OCCOCCOCCOC)c(OCCOCCOCCOC)c2)OC(=O)c2cc(OCCOCCOCCOC)c(OCCOCCOCCOC)c(OCCOCCOCCOC)c2)c1 [Compound 2R, (3,5)-12G1-BMPA-GC-(R)-(3,4,5)-3EO-G1]	0.258
CCCCCCCCCCCCOc1cc(OCCCCCCCCCCCC)cc(C(=O)OCC(C)(COC(=O)c2cc(OCCCCCCCCCCCC)cc(OCCCCCCCCCCCC)c2)C(=O)OC(COC(=O)c2cc(OCCOCCOCCOC)c(OCCOCCOCCOC)c(OCCOCCOCCOC)c2)COC(=O)c2cc(OCCOCCOCCOC)c(OCCOCCOCCOC)c(OCCOCCOCCOC)c2)c1 [Compound 4]	0.136
CCCCCCCCCCCCOc1cc(OCCCCCCCCCCCC)cc(C(=O)OCC(C)(COC(=O)c2cc(OCCCCCCCCCCCC)cc(OCCCCCCCCCCCC)c2)C(=O)OC[C@H](COC(=O)c2cc(OCCOCCOCCOC)c(OCCOCCOCCOC)c(OCCOCCOCCOC)c2)OC(=O)c2cc(OCCOCCOCCOC)c(OCCOCCOCCOC)c(OCCOCCOCCOC)c2)c1 [Compound 2S, (3,5)-12G1-BMPA-GC-(S)-(3,4,5)-3EO-G1]	0.291

Could you now consider this next compound?
IN: Data request, read-out PDI, for CCCCCCCCCCCCOc1cc(OCCCCCCCCCCCC)cc(C(=O)OCC(COC(=O)c2cc(OCCCCCCCCCCCC)cc(OCCCCCCCCCCCC)c2)OC(=O)C(C)(COC(=O)c2cc(OCCOCCOCCOC)c(OCCOCCOCCOC)c(OCCOCCOCCOC)c2)COC(=O)c2cc(OCCOCCOCCOC)c(OCCOCCOCCOC)c(OCCOCCOCCOC)c2)c1 [Compound 3]
OUT: 0.183
